Every entry's value here was drawn from patent US20050215548A1.

# Subject of test: HDM2 (Homo sapiens, UniProt Q00987)
# Construct: Recombinant HDM2 (1.5 μg per well) in TBS-BSA buffer
# Sequence (Q00987 whole entry): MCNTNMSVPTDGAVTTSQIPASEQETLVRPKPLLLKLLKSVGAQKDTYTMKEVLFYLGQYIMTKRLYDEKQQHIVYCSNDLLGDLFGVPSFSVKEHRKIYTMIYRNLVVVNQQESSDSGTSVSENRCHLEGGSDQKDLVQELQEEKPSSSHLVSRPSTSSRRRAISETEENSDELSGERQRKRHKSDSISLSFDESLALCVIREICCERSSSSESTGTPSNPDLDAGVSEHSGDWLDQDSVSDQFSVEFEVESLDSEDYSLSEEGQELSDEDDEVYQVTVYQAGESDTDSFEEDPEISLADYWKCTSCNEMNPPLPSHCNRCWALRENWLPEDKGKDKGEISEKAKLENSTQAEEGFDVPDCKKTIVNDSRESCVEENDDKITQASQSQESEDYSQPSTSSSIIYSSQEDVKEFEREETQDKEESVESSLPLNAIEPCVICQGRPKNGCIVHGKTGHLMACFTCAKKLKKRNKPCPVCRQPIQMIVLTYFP
# Experiment notes: Fluorescence polarisation competitive HDM2 binding assay
# Measurement context: fluorescence polarisation format; Table 1; read-out: IC50 In vitro competitive HDM2 binding assay
# key: entry, value: IC50

[
  {
    "Compound": "Cn1nc(-c2ccc(S(=O)(=O)N(Cc3cccc(C(F)(F)F)c3)c3cc(C(F)(F)F)cc(C(F)(F)F)c3)s2)cc1C(F)(F)F",
    "IC50 / µM": 315
  },
  {
    "Compound": "O=S(=O)(Nc1cc(C(F)(F)F)cc(C(F)(F)F)c1)c1c(Cl)cccc1Cl",
    "IC50 / µM": 134
  },
  {
    "Compound": "O=S(=O)(Nc1cc(Cl)cc(Cl)c1)c1ccc(Br)s1",
    "IC50 / µM": 291
  },
  {
    "Compound": "O=S(=O)(Nc1cc(Cl)cc(Cl)c1)c1ccc(S(=O)(=O)c2ccccc2)s1",
    "IC50 / µM": 288
  },
  {
    "Compound": "O=[N+]([O-])c1cc(S(=O)(=O)NCc2ccc(F)cc2)sc1Cl",
    "IC50 / µM": 16
  },
  {
    "Compound": "O=S(=O)(Nc1cc(C(F)(F)F)cc(C(F)(F)F)c1)c1cc(Br)c(Br)s1",
    "IC50 / µM": 407
  },
  {
    "Compound": "O=[N+]([O-])c1cc(S(=O)(=O)Nc2ccc(Cl)cc2)sc1Cl",
    "IC50 / µM": 26.4
  },
  {
    "Compound": "O=S(=O)(Nc1ccc(C(F)(F)F)cc1)c1ccc(Cl)s1",
    "IC50 / µM": 102
  },
  {
    "Compound": "O=S(=O)(Nc1ccc(Cl)cc1)c1ccc2c(c1)OCCO2",
    "IC50 / µM": 432
  },
  {
    "Compound": "O=[N+]([O-])c1cc(S(=O)(=O)N(Cc2ccccc2)c2ccc(Cl)cc2)sc1Cl",
    "IC50 / µM": 7.4
  },
  {
    "Compound": "O=S(=O)(Nc1ccc(Cl)cc1)c1ccc(Oc2ccccc2)nc1",
    "IC50 / µM": 212
  },
  {
    "Compound": "O=[N+]([O-])c1cccc(S(=O)(=O)Nc2ccc(C(F)(F)F)cc2)c1 [Compound 20]",
    "IC50 / µM": 482
  },
  {
    "Compound": "O=S(=O)(Nc1ccc(C(F)(F)F)cc1)c1cc(S(=O)(=O)Nc2ccc(C(F)(F)F)cc2)c(Cl)s1",
    "IC50 / µM": 65
  },
  {
    "Compound": "CCc1sc(S(=O)(=O)Nc2ccc(Cl)cc2)cc1[N+](=O)[O-]",
    "IC50 / µM": 237
  },
  {
    "Compound": "O=S(=O)(Nc1ccc(C(F)(F)F)cc1)c1cc(Br)c(Br)s1",
    "IC50 / µM": 163
  },
  {
    "Compound": "O=S(=O)(Nc1ccc(Cl)cc1)c1ccc2nsnc2c1",
    "IC50 / µM": 314
  },
  {
    "Compound": "O=[N+]([O-])c1cc(S(=O)(=O)NCc2cc(F)cc(F)c2)sc1Cl",
    "IC50 / µM": 27
  },
  {
    "Compound": "O=S(=O)(Nc1ccc(C(F)(F)F)cc1)c1cc(Cl)c(O)c(Cl)c1",
    "IC50 / µM": 449
  }
]

---

# Test system: AGS
# Experiment notes: 72-h MTT cytotoxicity assay, AGS
# Type: cell-based
# Measurement context: Homo sapiens, Example 9, read-out: anti-proliferative IC50 concentration determined for each cell line
Property measured: IC50 (µM)

[
  {
    "Smiles repr": "O=[N+]([O-])c1cc(S(=O)(=O)Nc2ccc(Cl)cc2)sc1Cl",
    "Subject of test": "AGS",
    "Property measured": "IC50",
    "Unit spec": "µM",
    "Reported measurement": 1
  }
]

---

# Subject of test: HDM2 (Homo sapiens, UniProt Q00987)
# Construct: Recombinant HDM2 (1.5 μg per well) in TBS-BSA buffer
# Experiment notes: Fluorescence polarisation competitive HDM2 binding assay
# Measurement context: fluorescence polarisation assay; Table 3; read-out: In vitro competitive HDM2 binding assay IC50

[
  {
    "Smiles repr": "COc1ccc(N(Cc2ccccc2)S(=O)(=O)c2cc([N+](=O)[O-])c(Cl)s2)cc1",
    "Subject of test": "HDM2 (Homo sapiens, UniProt Q00987)",
    "Unit spec": "µM",
    "IC50": 14.7
  },
  {
    "Smiles repr": "O=S(=O)(Nc1ccc(F)cc1)c1cc(Br)c(Cl)s1",
    "Subject of test": "HDM2 (Homo sapiens, UniProt Q00987)",
    "Unit spec": "µM",
    "IC50": 378
  },
  {
    "Smiles repr": "O=[N+]([O-])c1cc(S(=O)(=O)NCCc2c[nH]c3ccccc23)sc1Cl",
    "Subject of test": "HDM2 (Homo sapiens, UniProt Q00987)",
    "Unit spec": "µM",
    "IC50": 25.3
  },
  {
    "Smiles repr": "O=[N+]([O-])c1cc(S(=O)(=O)NCCc2c[nH]c3cc(Cl)ccc23)sc1Cl",
    "Subject of test": "HDM2 (Homo sapiens, UniProt Q00987)",
    "Unit spec": "µM",
    "IC50": 29
  },
  {
    "Smiles repr": "O=[N+]([O-])c1cc(S(=O)(=O)Nc2ccc(C(F)(F)F)cc2)sc1Cl",
    "Subject of test": "HDM2 (Homo sapiens, UniProt Q00987)",
    "Unit spec": "µM",
    "IC50": 20.4
  },
  {
    "Smiles repr": "O=[N+]([O-])c1cc(S(=O)(=O)Nc2nc3ccccc3[nH]2)ccc1Cl",
    "Subject of test": "HDM2 (Homo sapiens, UniProt Q00987)",
    "Unit spec": "µM",
    "IC50": 119
  },
  {
    "Smiles repr": "O=[N+]([O-])c1cc(S(=O)(=O)Nc2ccc(F)cc2)sc1Cl",
    "Subject of test": "HDM2 (Homo sapiens, UniProt Q00987)",
    "Unit spec": "µM",
    "IC50": 41.9
  },
  {
    "Smiles repr": "COc1ccc(NS(=O)(=O)c2cc([N+](=O)[O-])c(Cl)s2)c(C)c1",
    "Subject of test": "HDM2 (Homo sapiens, UniProt Q00987)",
    "Unit spec": "µM",
    "IC50": 278
  },
  {
    "Smiles repr": "O=[N+]([O-])c1cc(S(=O)(=O)Nc2cc(F)cc(F)c2)sc1Cl",
    "Subject of test": "HDM2 (Homo sapiens, UniProt Q00987)",
    "Unit spec": "µM",
    "IC50": 59.6
  },
  {
    "Smiles repr": "CN(c1ccc(C(F)(F)F)cc1)S(=O)(=O)c1cc([N+](=O)[O-])c(Cl)s1",
    "Subject of test": "HDM2 (Homo sapiens, UniProt Q00987)",
    "Unit spec": "µM",
    "IC50": 7.3
  }
]

---

# Subject of test: HDM2 (Homo sapiens, UniProt Q00987)
# Construct: Recombinant HDM2 (1.5 μg per well) in TBS-BSA buffer
# Experiment notes: Fluorescence polarisation competitive HDM2 binding assay
# Measurement context: fluorescence polarisation format; Table 1; read-out: IC50 In vitro competitive HDM2 binding assay
Response field label: string, one of true (IC50 strictly below 300 µM) or false.

[
  {
    "Molecule": "O=[N+]([O-])c1cc(S(=O)(=O)Nc2ccc(Cl)cc2)sc1N1CCCC(O)C1 (centres unmarked)",
    "Subject of test": "HDM2 (Homo sapiens, UniProt Q00987)",
    "Group label": "true"
  },
  {
    "Molecule": "O=[N+]([O-])c1cccc(S(=O)(=O)Nc2ccc(Cl)cc2Cl)c1",
    "Subject of test": "HDM2 (Homo sapiens, UniProt Q00987)",
    "Group label": "false"
  },
  {
    "Molecule": "O=S(=O)(NCc1ccc(F)cc1)c1cc(Cl)c(O)c(Cl)c1",
    "Subject of test": "HDM2 (Homo sapiens, UniProt Q00987)",
    "Group label": "false"
  },
  {
    "Molecule": "O=S(=O)(Nc1cc(C(F)(F)F)cc(C(F)(F)F)c1)c1ccc(Cl)s1",
    "Subject of test": "HDM2 (Homo sapiens, UniProt Q00987)",
    "Group label": "false"
  },
  {
    "Molecule": "O=S(=O)(Nc1cc(Cl)cc(Cl)c1)c1ccc(-c2ncco2)cc1",
    "Subject of test": "HDM2 (Homo sapiens, UniProt Q00987)",
    "Group label": "true"
  },
  {
    "Molecule": "O=S(=O)(Nc1ccc(C(F)(F)F)cc1)c1ccc2nsnc2c1",
    "Subject of test": "HDM2 (Homo sapiens, UniProt Q00987)",
    "Group label": "false"
  },
  {
    "Molecule": "Nc1ccc(S(=O)(=O)Nc2ccc(Cl)cc2)cc1Cl",
    "Subject of test": "HDM2 (Homo sapiens, UniProt Q00987)",
    "Group label": "false"
  },
  {
    "Molecule": "O=S(=O)(Nc1ccc(F)cc1)c1cc(Br)c(Cl)s1",
    "Subject of test": "HDM2 (Homo sapiens, UniProt Q00987)",
    "Group label": "false"
  },
  {
    "Molecule": "O=S(=O)(Nc1cc(Cl)cc(Cl)c1)c1cc(Br)c(Br)s1",
    "Subject of test": "HDM2 (Homo sapiens, UniProt Q00987)",
    "Group label": "true"
  },
  {
    "Molecule": "O=S(=O)(Nc1cc(C(F)(F)F)cc(C(F)(F)F)c1)c1cc(Cl)c(O)c(Cl)c1",
    "Subject of test": "HDM2 (Homo sapiens, UniProt Q00987)",
    "Group label": "true"
  },
  {
    "Molecule": "O=C(O)c1cccc(S(=O)(=O)Nc2cc(C(F)(F)F)cc(C(F)(F)F)c2)c1",
    "Subject of test": "HDM2 (Homo sapiens, UniProt Q00987)",
    "Group label": "false"
  },
  {
    "Molecule": "O=S(=O)(Nc1cc(Cl)cc(Cl)c1)c1cc(Br)c(Cl)s1",
    "Subject of test": "HDM2 (Homo sapiens, UniProt Q00987)",
    "Group label": "false"
  },
  {
    "Molecule": "O=S(=O)(NCCc1c[nH]c2ccccc12)c1cc(Cl)c(O)c(Cl)c1",
    "Subject of test": "HDM2 (Homo sapiens, UniProt Q00987)",
    "Group label": "false"
  },
  {
    "Molecule": "O=[N+]([O-])c1cc(S(=O)(=O)Nc2ccc(Cl)cc2)sc1N1CCOCC1",
    "Subject of test": "HDM2 (Homo sapiens, UniProt Q00987)",
    "Group label": "false"
  }
]
